tested on: Streptococcus pneumoniae; assay: Antimicrobial activity against penicillin-susceptible Streptococcus pneumoniae PU09 incubated for 20 to 24 hrs by two-fold microbroth dilution method; assay type: functional
VALUE KIND: MIC (µg/mL)

[
  {
    "SMILES CODE": "CC[C@H]1OC(=O)[C@H](C)[C@@H](OC(=O)Cc2ccccn2)[C@H](C)[C@@H](O[C@@H]2O[C@H](C)C[C@H](N(C)C)[C@H]2O)[C@](C)(OC)C[C@@H](C)/C(=N\\OCCCc2cncc(NC(=O)Cc3ccccn3)c2)[C@H](C)[C@H]2OC(=O)O[C@@]21C",
    "UNIT SPEC": "µg/mL",
    "MEASURED NUMBER": 4
  },
  {
    "SMILES CODE": "CC[C@H]1OC(=O)[C@H](C)[C@@H](OC(=O)Cc2ccccn2)[C@H](C)[C@@H](O[C@@H]2O[C@H](C)C[C@H](N(C)C)[C@H]2O)[C@](C)(OC)C[C@@H](C)/C(=N\\OC/C=C/c2cncc(NC(=O)Cc3ccccn3)c2)[C@H](C)[C@H]2OC(=O)O[C@@]21C",
    "UNIT SPEC": "µg/mL",
    "MEASURED NUMBER": 2
  },
  {
    "SMILES CODE": "CC[C@H]1OC(=O)[C@H](C)[C@@H](OC(=O)Cc2ccccn2)[C@H](C)[C@@H](O[C@@H]2O[C@H](C)C[C@H](N(C)C)[C@H]2O)[C@](C)(OC)C[C@@H](C)/C(=N\\OC/C=C/c2ccc(NC(=O)Cc3ccccn3)nc2)[C@H](C)[C@H]2OC(=O)O[C@@]21C",
    "UNIT SPEC": "µg/mL",
    "MEASURED NUMBER": 2
  },
  {
    "SMILES CODE": "CC[C@H]1OC(=O)[C@H](C)[C@@H](OC(=O)Cc2ccccn2)[C@H](C)[C@@H](O[C@@H]2O[C@H](C)C[C@H](N(C)C)[C@H]2O)[C@](C)(OC)C[C@@H](C)/C(=N\\OC/C=C/c2cccnc2N)[C@H](C)[C@H]2OC(=O)O[C@@]21C",
    "UNIT SPEC": "µg/mL",
    "MEASURED NUMBER": 1
  }
]
